experiment: Lipophilicity determined as logarithm of the partition coefficient in the alkane/water system; conditions: octanol/water
Would you mind classing the entries by Log PNalk? Ranges: low (below -0.9), moderate (-0.9 to below 0.5), high (0.5 or more)

## Task Which class holds C=CCc1ccccc1OCC(O)CNC(C)C (centres undefined) ?
## Result high

* * *

Each entry below carries its reported Activity.
assay: Tested for fraction of oral dose absorbed orally in humans; format: ADME; conditions: human
Report the figure in % without appending any unit label.

compound: CC(C)NCC(O)COc1cccc2[nH]ccc12 (centres undefined)
Activity, %: 92

compound: Cc1cc(=O)n(-c2ccccc2)n1C [ANTIPYRINE]
Activity, %: 97

compound: OC[C@@H](O)[C@@H](O)[C@H](O)[C@H](O)CO
Activity, %: 26

// switching to the query compound
Record C=CCc1ccccc1OCC(O)CNC(C)C (centres undefined) . Reported Activity: 96

* * *

# Log PNalk per record follows
assay: Lipophilicity determined as logarithm of the partition coefficient in the alkane/water system; conditions: octanol/water

Look over these answered cases.
compound: Oc1ccccc1
Log PNalk: -0.82

compound: C[C@]12CC[C@H]3[C@@H](CCC4=CC(=O)CC[C@@]43C)[C@@H]1CC[C@@H]2O
Log PNalk: 0.41

compound: O=S(=O)(c1ccccc1)c1ccccc1
Log PNalk: 1.45

Briefly, Log PNalk measured for OCCOCCN1CCN(C(c2ccccc2)c2ccc(Cl)cc2)CC1 (stereo unspecified) [HYDROXYZINE] : 1.25

Just so you know, measured Log PNalk for CCCCCCCO came out at 1.01

Recorded result, NCc1ccccc1 , Log PNalk: -0.21

* * *

assay: Lipophilicity determined as logarithm of the partition coefficient in the alkane/water system; settings: octanol/water
recordedMetric: Log PNalk
Write no unit; give the number alone.

Below are worked cases with known answers.
compound: Cc1cc(C)cc(O)c1
recordedValue: 0.32
//
compound: Brc1ccccc1
recordedValue: 3.12
//
compound: O=C(O)c1ccccc1O
recordedValue: -0.92
//
compound: [O-][n+]1ccc(-c2ccccc2)cc1
recordedValue: -2.36
//
compound: Cc1ccc(O)c(C)c1
recordedValue: 0.34
//
compound: O=C(CCCN1CCC(O)(c2ccc(Cl)cc2)CC1)c1ccc(F)cc1
recordedValue: 1.53

Turning to the following compound.
// sample CC(C(=O)O)c1ccc(-c2ccccc2)c(F)c1 (configuration not stated) , its Log PNalk was 1.49

* * *

test: Lipophilicity determined as logarithm of the partition coefficient in the alkane/water system; conditions: octanol/water
Classification field. Basis: Log PNalk. Definitions: low end = under -0.3, middle = from -0.3 up to 1, high end = 1 and over

Some entries whose results are on file:
compound: CC(C)Cc1ccc(C(C)C(=O)O)cc1 (stereo unspecified)
classLabel: high end

compound: CC(N)Cc1ccccc1 (stereo unspecified)
classLabel: middle

compound: O=Cc1ccccc1
classLabel: high end

compound: Nc1ccccc1[N+](=O)[O-]
classLabel: middle

compound: c1ccc2cnccc2c1
classLabel: high end

## Task Given CC(=O)CC(c1ccccc1)c1c(O)c2ccccc2oc1=O (stereo unspecified) , name the class its Log PNalk places it in.
## Result middle

## Task Which class holds C[C@]12CCC(=O)C=C1CC[C@@H]1[C@@H]2CC[C@@]2(C)[C@H]1CC[C@]2(O)C(=O)CO ?
## Result low end

## Task Categorize the following entry: O=C(O)CCl
## Result low end

## Task Which class does CCCCCC(=O)O [HEXANOATE] fall in?
## Result middle

## Task # bin label for CCOC(C)=O [ETHYL ACETATE]
## Result middle

## Task # classify by Log PNalk band: Oc1c(Cl)cccc1Cl
## Result high end

## Task Class for Ic1ccccc1 ?
## Result high end

Where these numbers come from: ChEMBL document CHEMBL1143634
